Provenance of the data: patent US11998606B2

# Assay Comment: Single dose intraperitoneal pharmacokinetics in CD-1 mice, plasma concentration by HPLC-MS
# Assay type: in vivo
# Reported Conditions: female, CD-1, mouse, ip, 10 mg/kg, 2 hr, 10 mg/kg IP, CD-1 mice, individual animals, read-out: Individual concentration
Measured Metric: concentration at 2 h (nM)
# value in nM; strip the unit string

Request: Which value of concentration at 2 h has been reported for CC#C[C@]1(O)CC[C@H]2[C@@H]3CCC4=CC(=O)CCC4=C3[C@@H](c3ccc(N(C)CCCC(=O)N4CCN(C(=O)OC(C)(C)C)CC4C(=O)N4CCN(C(=O)OC(C)(C)C)CC4C(=O)NCCCOCCOCCOCCCNc4cccc5c4C(=O)N(C4CCC(=O)NC4=O)C5=O)cc3)C[C@@]21C (stereo partly shown) in the records?
Result: 2240
